- assaySystem: E. coli MurF (Escherichia coli)
- Sequence (P11880 whole entry): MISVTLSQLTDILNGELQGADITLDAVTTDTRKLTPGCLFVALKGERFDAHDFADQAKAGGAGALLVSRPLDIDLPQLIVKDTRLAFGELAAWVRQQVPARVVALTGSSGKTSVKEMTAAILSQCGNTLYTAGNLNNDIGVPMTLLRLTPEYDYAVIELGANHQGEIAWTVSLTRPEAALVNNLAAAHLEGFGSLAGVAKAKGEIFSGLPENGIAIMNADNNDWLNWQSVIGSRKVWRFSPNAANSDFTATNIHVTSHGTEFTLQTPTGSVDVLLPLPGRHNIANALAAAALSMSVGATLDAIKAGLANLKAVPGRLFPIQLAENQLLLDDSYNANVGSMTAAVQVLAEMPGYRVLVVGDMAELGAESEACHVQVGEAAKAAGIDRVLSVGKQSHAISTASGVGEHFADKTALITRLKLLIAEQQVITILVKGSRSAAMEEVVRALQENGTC
- methodDescription: MurF inhibition assay (Malachite green)
- Assay type: biochemical
- conditionInfo: 0.25 h; residual activity at 100 µM compound; mean ± SD of three independent experiments; read-out: RA (%) @ 100 µM MurF
quantityKind: remaining activity at 100 µM (%)
Use % as the unit, but write only the number.

INPUT: For the record O=c1c(OC2OC(CO)C(O)C(O)C2O)c(-c2ccc(O)c(O)c2)oc2cc(O)cc(O)c12 (centres unmarked) , what value of remaining activity at 100 µM is listed for E. coli MurF (Escherichia coli)?
OUTPUT: 90

INPUT: For the record O=c1cc(-c2ccc(O)c(O)c2)oc2cc(OC3OC(CO)C(O)C(O)C3O)cc(O)c12 (centres unmarked) , what value of remaining activity at 100 µM is listed for E. coli MurF (Escherichia coli)?
OUTPUT: 92

INPUT: For the record CC1OC(OCC2OC(Oc3c(-c4ccc(O)c(O)c4)oc4cc(O)cc(O)c4c3=O)C(O)C(O)C2O)C(O)C(O)C1O (centres unmarked) , what value of remaining activity at 100 µM is listed for E. coli MurF (Escherichia coli)?
OUTPUT: 89

INPUT: For the record O=c1c(O[C@@H]2O[C@H](CO)[C@@H](O)[C@H](O)[C@H]2O)c(-c2ccc(O)c(O)c2)oc2cc(O)cc(O)c12 , what value of remaining activity at 100 µM is listed for E. coli MurF (Escherichia coli)?
OUTPUT: 88

# ---- query compound ----
INPUT: For the record Cc1c(O)cc(O)c2c1O[C@H](c1ccccc1)CC2=O , what value of remaining activity at 100 µM is listed for E. coli MurF (Escherichia coli)?
OUTPUT: 88
